Record form. Attribute: Height. Fill in for each entry.
Tested on: rice
protocol: Low temperature assay on rice seedlings
Format: in vivo
protocol conditions: 0.1 mg/l, 5 °C, 3 days
Remember to put the unit after the number in your answer.

Query (molecule): C=C(C(C)C)[C@@H](O)[C@H](O)[C@@H](C)[C@H]1CCC2C3COC(=O)C4C[C@H](O)[C@H](O)C[C@]4(C)C3CC[C@@]21C (stereo partly drawn) [BR3] ; field requested: Height 7.5 cm

Look at this molecule and give its reported Height. CC(C)[C@H](C)[C@@H](O)[C@H](O)[C@@H](C)[C@H]1CCC2C3CC(=O)C4C[C@H](O)CC[C@]4(C)C3CC[C@@]21C (stereo partly drawn) [BR4] 7.4 cm

What value of Height has been reported for the following molecule? CC(C)(O)CC[C@@H](O)[C@](C)(O)[C@H]1CC[C@@]2(O)[C@@H]3CC(=O)[C@@H]4C[C@@H](O)[C@@H](O)C[C@]4(C)[C@H]3CC[C@]12C [BR6] 7.7 cm

Quick check: Height of CC[C@@H](C(C)C)[C@@H](O)[C@H](O)[C@@H](C)[C@H]1CCC2C3COC(=O)C4C[C@H](O)[C@H](O)C[C@]4(C)C3CC[C@@]21C (stereo partly drawn) [BR2] ? 7.5 cm

Item under review: CC(C)C[C@@H](O)[C@H](O)[C@@H](C)[C@H]1CCC2C3CC(=O)C4C[C@H](O)[C@H](O)C[C@]4(C)C3CC[C@@]21C (stereo partly drawn) [BR5] . Reported Height? 7.5 cm

Given the molecule CC(C)[C@H](C)[C@@H](O)[C@H](O)[C@@H](C)[C@H]1CCC2C3COC(=O)C4C[C@H](O)[C@H](O)C[C@]4(C)C3CC[C@@]21C (stereo partly drawn) [BR1] , what is its reported Height? 7.7 cm

====

Exercise: for every item that follows, state its recorded Area of leaf.
Tested on: rice
protocol: Low temperature assay on rice seedlings
Assay type: in vivo
protocol conditions: 0.01 mg/l, 3 °C, 9 days
Output spec: scalar in cm^2, unitless text.

Provide the documented Area of leaf with rice as the system for CC[C@@H](C(C)C)[C@@H](O)[C@H](O)[C@@H](C)[C@H]1CCC2C3COC(=O)C4C[C@H](O)[C@H](O)C[C@]4(C)C3CC[C@@]21C (stereo partly drawn) [BR2] 12.6

Report Area of leaf for CC(C)C[C@@H](O)[C@H](O)[C@@H](C)[C@H]1CCC2C3CC(=O)C4C[C@H](O)[C@H](O)C[C@]4(C)C3CC[C@@]21C (stereo partly drawn) [BR5] tested on rice. 12.2

Give Area of leaf (rice) of the following molecule: CC(C)(O)CC[C@@H](O)[C@](C)(O)[C@H]1CC[C@@]2(O)[C@@H]3CC(=O)[C@@H]4C[C@@H](O)[C@@H](O)C[C@]4(C)[C@H]3CC[C@]12C [BR6] 12.6

Record CC(C)[C@H](C)[C@@H](O)[C@H](O)[C@@H](C)[C@H]1CCC2C3COC(=O)C4C[C@H](O)[C@H](O)C[C@]4(C)C3CC[C@@]21C (stereo partly drawn) [BR1] : what is its Area of leaf with rice? 12.6

What value of Area of leaf on rice does CC(C)[C@H](C)[C@@H](O)[C@H](O)[C@@H](C)[C@H]1CCC2C3CC(=O)C4C[C@H](O)CC[C@]4(C)C3CC[C@@]21C (stereo partly drawn) [BR4] have? 12.1

Provide value of Area of leaf for this record tested with rice: C=C(C(C)C)[C@@H](O)[C@H](O)[C@@H](C)[C@H]1CCC2C3COC(=O)C4C[C@H](O)[C@H](O)C[C@]4(C)C3CC[C@@]21C (stereo partly drawn) [BR3] 12.1

====

Test system: rice
protocol: Low temperature assay on rice seedlings
Type: in vivo
protocol conditions: 0.0001 mg/l, 2 °C, 6 days
readout name: Height (cm)
Record the value in cm, omitting the unit from your answer.

What value of Height has been recorded for this entry: CC(C)[C@H](C)[C@@H](O)[C@H](O)[C@@H](C)[C@H]1CCC2C3COC(=O)C4C[C@H](O)[C@H](O)C[C@]4(C)C3CC[C@@]21C (stereo partly drawn) 7.2

Consider the compound CC[C@@H](C(C)C)[C@@H](O)[C@H](O)[C@@H](C)[C@H]1CCC2C3COC(=O)C4C[C@H](O)[C@H](O)C[C@]4(C)C3CC[C@@]21C (stereo partly drawn) and give its measured Height. 7

Which Height reading was recorded for the compound CC(C)(O)CC[C@@H](O)[C@](C)(O)[C@H]1CC[C@@]2(O)[C@@H]3CC(=O)[C@@H]4C[C@@H](O)[C@@H](O)C[C@]4(C)[C@H]3CC[C@]12C ? 7.2

# input compound: C=C(C(C)C)[C@@H](O)[C@H](O)[C@@H](C)[C@H]1CCC2C3COC(=O)C4C[C@H](O)[C@H](O)C[C@]4(C)C3CC[C@@]21C (stereo partly drawn) ; wanted: its Height 7

Fill in the blank: the reported Height of CC(C)[C@H](C)[C@@H](O)[C@H](O)[C@@H](C)[C@H]1CCC2C3CC(=O)C4C[C@H](O)CC[C@]4(C)C3CC[C@@]21C (stereo partly drawn) is ____. 7

Look up Height for this compound: CC(C)C[C@@H](O)[C@H](O)[C@@H](C)[C@H]1CCC2C3CC(=O)C4C[C@H](O)[C@H](O)C[C@]4(C)C3CC[C@@]21C (stereo partly drawn) 7

====

For each record, write down the corresponding Number of leaf.
Tested on: rice
protocol: Low temperature assay on rice seedlings
Format: in vivo
protocol conditions: 0.001 mg/l, 1 °C, 12 days
# answer = number (no unit)

Any idea what its Number of leaf is? The compound is CC(C)[C@H](C)[C@@H](O)[C@H](O)[C@@H](C)[C@H]1CCC2C3COC(=O)C4C[C@H](O)[C@H](O)C[C@]4(C)C3CC[C@@]21C (stereo partly drawn) 3

Number of leaf lookup needed for CC[C@@H](C(C)C)[C@@H](O)[C@H](O)[C@@H](C)[C@H]1CCC2C3COC(=O)C4C[C@H](O)[C@H](O)C[C@]4(C)C3CC[C@@]21C (stereo partly drawn) , thanks. 3

Look up Number of leaf: CC(C)[C@H](C)[C@@H](O)[C@H](O)[C@@H](C)[C@H]1CCC2C3CC(=O)C4C[C@H](O)CC[C@]4(C)C3CC[C@@]21C (stereo partly drawn) 3

====

System: rice
protocol: Low temperature assay on rice seedlings
Assay type: in vivo
protocol conditions: 0.001 mg/l, 5 °C, 6 days
I'd be grateful if you could share measured Weight of root for these entries.
Report the value in g with no unit label.

May I ask what Weight of root has been recorded for CC(C)(O)CC[C@@H](O)[C@](C)(O)[C@H]1CC[C@@]2(O)[C@@H]3CC(=O)[C@@H]4C[C@@H](O)[C@@H](O)C[C@]4(C)[C@H]3CC[C@]12C [BR6] ? 2.7

Weight of root for CC(C)[C@H](C)[C@@H](O)[C@H](O)[C@@H](C)[C@H]1CCC2C3CC(=O)C4C[C@H](O)CC[C@]4(C)C3CC[C@@]21C (stereo partly drawn) [BR4] ? 2.9

I have this molecule here, CC(C)[C@H](C)[C@@H](O)[C@H](O)[C@@H](C)[C@H]1CCC2C3COC(=O)C4C[C@H](O)[C@H](O)C[C@]4(C)C3CC[C@@]21C (stereo partly drawn) [BR1] , and I need its recorded Weight of root. 2.9

# Weight of root lookup, item CC[C@@H](C(C)C)[C@@H](O)[C@H](O)[C@@H](C)[C@H]1CCC2C3COC(=O)C4C[C@H](O)[C@H](O)C[C@]4(C)C3CC[C@@]21C (stereo partly drawn) [BR2] 2.9

Any idea what its Weight of root is? The molecule is CC(C)C[C@@H](O)[C@H](O)[C@@H](C)[C@H]1CCC2C3CC(=O)C4C[C@H](O)[C@H](O)C[C@]4(C)C3CC[C@@]21C (stereo partly drawn) [BR5] 2.9

Using the record for C=C(C(C)C)[C@@H](O)[C@H](O)[C@@H](C)[C@H]1CCC2C3COC(=O)C4C[C@H](O)[C@H](O)C[C@]4(C)C3CC[C@@]21C (stereo partly drawn) [BR3] , report its Weight of root. 2.9

====

For each record, write down the corresponding Height.
Tested on: rice
protocol: Low temperature assay on rice seedlings
Type: in vivo
protocol conditions: 0.01 mg/l, 2 °C, 6 days
Report only the number, with the unit cm understood.

What measured Height goes with CC[C@@H](C(C)C)[C@@H](O)[C@H](O)[C@@H](C)[C@H]1CCC2C3COC(=O)C4C[C@H](O)[C@H](O)C[C@]4(C)C3CC[C@@]21C (stereo partly drawn) ? 7.2

# query: Height of entry C=C(C(C)C)[C@@H](O)[C@H](O)[C@@H](C)[C@H]1CCC2C3COC(=O)C4C[C@H](O)[C@H](O)C[C@]4(C)C3CC[C@@]21C (stereo partly drawn) 7.2

Returns the measured Height for the input compound. Input: CC(C)(O)CC[C@@H](O)[C@](C)(O)[C@H]1CC[C@@]2(O)[C@@H]3CC(=O)[C@@H]4C[C@@H](O)[C@@H](O)C[C@]4(C)[C@H]3CC[C@]12C 7.2
